system: Saccharomyces cerevisiae; assay: Antifungal activity against Saccharomyces cerevisiae 1138; type: functional
Reported IC12 values follow for various molecules
Report as a plain number; the unit µg/mL is understood.

Take a look at these entries with their results.
CC(=O)N[C@H]1[C@H](O[C@H]2CC[C@]3(C)[C@H]4CC=C5[C@@H]6CC(C)(C)CC[C@]6(C(=O)O)CC[C@@]5(C)[C@]4(C)CC[C@H]3C2(C)C)O[C@H](CO[C@@H]2OC[C@H](O)[C@H](O)[C@H]2O[C@@H]2OC[C@H](O)[C@H](O)[C@H]2O)[C@@H](O)[C@@H]1O    25
CC(=O)N[C@H]1[C@H](O[C@H]2CC[C@]3(C)[C@H]4CC=C5[C@@H]6CC(C)(C)[C@@H](OC(=O)/C=C/c7ccccc7)C[C@]6(C(=O)O)[C@H](O)C[C@@]5(C)[C@]4(C)CC[C@H]3C2(C)C)O[C@H](CO[C@@H]2OC[C@H](O)[C@H](O)[C@H]2O[C@@H]2OC[C@@H](O)[C@H](O)[C@H]2O)[C@@H](O)[C@@H]1O [ACACIOSIDE B]    150

Sure, the documented IC12 for CC(=O)N[C@H]1[C@H](O[C@H]2CC[C@]3(C)[C@H]4CC=C5[C@@H]6CC(C)(C)[C@@H](OC(=O)/C=C/c7ccccc7)C[C@]6(C(=O)O)[C@H](O)C[C@@]5(C)[C@]4(C)CC[C@H]3C2(C)C)O[C@H](CO[C@@H]2OC[C@H](O)[C@H](O)[C@H]2O[C@@H]2OC[C@H](O)[C@H](O)[C@H]2O)[C@@H](O)[C@@H]1O [ACACIOSIDE C] is 160

Sure, the documented IC12 for CC(=O)N[C@H]1[C@H](O[C@H]2CC[C@]3(C)[C@H]4CC=C5[C@@H]6CC(C)(C)CC[C@]6(C(=O)O)CC[C@@]5(C)[C@]4(C)CC[C@H]3C2(C)C)O[C@H](CO[C@@H]2OC[C@H](O)[C@H](O)[C@H]2O[C@@H]2OC[C@@H](O)[C@H](O)[C@H]2O)[C@@H](O)[C@@H]1O [ALBIZIATRIOSIDE A] is 30
